All figures here come from paper PMC11054487.

assay: Presaturation equilibrium dialysis, fraction unbound in rat plasma; type: in vitro ADME; parameters: dose or concentration left out as unconfirmed; settings: Wistar-Han rat plasma, 37 °C, value (CV), read-out: Fraction Unbound (fu) and Coefficient of Variance (CV), Rat Plasma
Assay metric: fraction unbound at 18 h

Field request: fraction unbound at 18 h | item: O=C(O)C(F)(F)C(F)(F)C(F)(F)C(F)(F)C(F)(F)C(F)(F)F [PFHpA, perfluoroheptanoic acid]
0.00454

Field request: fraction unbound at 18 h | item: NS(=O)(=O)C(F)(F)C(F)(F)C(F)(F)C(F)(F)C(F)(F)C(F)(F)C(F)(F)C(F)(F)F [PFOSA, perfluorooctanesulfonamide]
0.00197

---

biological target: rat serum albumin (RSA) (Rattus norvegicus, UniProt P02770); assay: Presaturation equilibrium dialysis, fraction unbound in rat serum albumin solution; conditions: rat, 4% rat serum albumin (RSA) solution, Fraction Unbound (fu) and Coefficient of Variance (CV), RSA, 4% rat serum albumin in PBS, 5 μM PFAS, value (CV)
Sequence (P02770 25-608): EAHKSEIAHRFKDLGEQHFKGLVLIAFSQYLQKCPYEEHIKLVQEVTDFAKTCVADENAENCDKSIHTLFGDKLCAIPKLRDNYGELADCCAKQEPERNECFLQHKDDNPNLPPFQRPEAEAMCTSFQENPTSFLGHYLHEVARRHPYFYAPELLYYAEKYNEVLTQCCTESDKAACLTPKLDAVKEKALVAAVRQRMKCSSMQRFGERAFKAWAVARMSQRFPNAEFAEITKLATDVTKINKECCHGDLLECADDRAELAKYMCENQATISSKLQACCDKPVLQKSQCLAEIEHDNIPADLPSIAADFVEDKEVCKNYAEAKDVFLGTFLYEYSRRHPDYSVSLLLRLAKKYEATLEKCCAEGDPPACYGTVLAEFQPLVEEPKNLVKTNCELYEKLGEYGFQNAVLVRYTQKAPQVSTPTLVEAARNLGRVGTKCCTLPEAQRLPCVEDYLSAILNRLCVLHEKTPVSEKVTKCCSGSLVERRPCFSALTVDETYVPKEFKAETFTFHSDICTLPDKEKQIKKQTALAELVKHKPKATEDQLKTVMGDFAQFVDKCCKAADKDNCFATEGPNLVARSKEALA
What fraction unbound at 18 h, 5 µM was measured for each of the following?
# print the numeric value only

Record lookup: for rat serum albumin (RSA) (Rattus norvegicus, UniProt P02770), what fraction unbound at 18 h, 5 µM belongs to NS(=O)(=O)C(F)(F)C(F)(F)C(F)(F)C(F)(F)C(F)(F)C(F)(F)C(F)(F)C(F)(F)F [PFOSA, perfluorooctanesulfonamide] ?
0.00118

Record lookup: for rat serum albumin (RSA) (Rattus norvegicus, UniProt P02770), what fraction unbound at 18 h, 5 µM belongs to `O=C(O)C(F)(F)C(F)(F)C(F)(F)C(F)(F)C(F)(F)C(F)(F)C(F)(F)F` ?
0.00196

Record lookup: for rat serum albumin (RSA) (Rattus norvegicus, UniProt P02770), what fraction unbound at 18 h, 5 µM belongs to `O=S(=O)(O)C(F)(F)C(F)(F)C(F)(F)C(F)(F)C(F)(F)C(F)(F)F` ?
0.000573

Record lookup: for rat serum albumin (RSA) (Rattus norvegicus, UniProt P02770), what fraction unbound at 18 h, 5 µM belongs to `O=C(O)C(F)(F)C(F)(F)C(F)(F)C(F)(F)C(F)(F)C(F)(F)C(F)(F)C(F)(F)C(F)(F)C(F)(F)C(F)(F)F` ?
9.64e-05

---

What fraction unbound at 18 h, 5 µM was measured for each of the following?
biological target: mouse serum albumin (MSA) (Mus musculus); test: Presaturation equilibrium dialysis, fraction unbound in mouse serum albumin solution; details: mouse, isolated protein, Fraction unbound (fu) and %CV, MSA 3%, 3% mouse serum albumin, value (%CV)
Sequence (P07724 25-608): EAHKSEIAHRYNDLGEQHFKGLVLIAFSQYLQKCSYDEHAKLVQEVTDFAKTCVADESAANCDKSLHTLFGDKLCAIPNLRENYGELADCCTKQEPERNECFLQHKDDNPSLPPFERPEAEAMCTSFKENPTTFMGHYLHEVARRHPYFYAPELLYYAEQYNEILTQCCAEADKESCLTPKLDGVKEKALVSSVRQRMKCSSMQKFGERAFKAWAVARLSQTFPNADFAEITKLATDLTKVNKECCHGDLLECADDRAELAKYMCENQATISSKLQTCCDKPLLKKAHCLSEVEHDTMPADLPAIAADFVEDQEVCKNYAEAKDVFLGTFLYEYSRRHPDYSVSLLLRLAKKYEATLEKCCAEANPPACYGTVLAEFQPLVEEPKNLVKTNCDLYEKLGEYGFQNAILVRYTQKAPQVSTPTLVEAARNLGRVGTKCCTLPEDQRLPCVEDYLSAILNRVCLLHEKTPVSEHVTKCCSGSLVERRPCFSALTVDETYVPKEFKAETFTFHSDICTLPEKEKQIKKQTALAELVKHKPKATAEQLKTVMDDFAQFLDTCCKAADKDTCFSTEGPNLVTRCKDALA
# print the numeric value only

Field request: fraction unbound at 18 h, 5 µM | item: O=C(O)C(F)(F)C(F)(F)C(F)(F)C(F)(F)C(F)(F)C(F)(F)C(F)(F)C(F)(F)C(F)(F)C(F)(F)C(F)(F)F [PFDoDA, perfluorododecanoic acid]
0.000175

Field request: fraction unbound at 18 h, 5 µM | item: O=C(O)C(F)(F)C(F)(F)C(F)(F)C(F)(F)C(F)(F)C(F)(F)C(F)(F)F [PFOA, perfluorooctanoic acid]
0.00411

Field request: fraction unbound at 18 h, 5 µM | item: O=S(=O)(O)C(F)(F)C(F)(F)C(F)(F)C(F)(F)C(F)(F)C(F)(F)F [PFHxS, perfluorohexanesulfonic acid]
0.00181

Field request: fraction unbound at 18 h, 5 µM | item: O=C(O)C(F)(F)C(F)(F)C(F)(F)C(F)(F)C(F)(F)C(F)(F)F [PFHpA, perfluoroheptanoic acid]
0.00954

Field request: fraction unbound at 18 h, 5 µM | item: NS(=O)(=O)C(F)(F)C(F)(F)C(F)(F)C(F)(F)C(F)(F)C(F)(F)C(F)(F)C(F)(F)F [PFOSA, perfluorooctanesulfonamide]
0.00102

---

What fraction unbound at 18 h, 5 µM was measured for each of the following?
assay: Presaturation equilibrium dialysis, fraction unbound in rat plasma; format: in vitro ADME; details: Wistar-Han rat plasma, 5 μM PFAS, 37 °C, value (CV), read-out: Fraction Unbound (fu) and Coefficient of Variance (CV), Rat Plasma
# print the numeric value only

Field request: fraction unbound at 18 h, 5 µM | item: O=C(O)C(F)(F)C(F)(F)C(F)(F)C(F)(F)C(F)(F)C(F)(F)C(F)(F)F [PFOA, perfluorooctanoic acid]
0.00298

Field request: fraction unbound at 18 h, 5 µM | item: O=S(=O)(O)C(F)(F)C(F)(F)C(F)(F)C(F)(F)C(F)(F)C(F)(F)F [PFHxS, perfluorohexanesulfonic acid]
0.00076

Field request: fraction unbound at 18 h, 5 µM | item: O=C(O)C(F)(F)C(F)(F)C(F)(F)C(F)(F)C(F)(F)C(F)(F)C(F)(F)C(F)(F)C(F)(F)C(F)(F)C(F)(F)F [PFDoDA, perfluorododecanoic acid]
7.96e-05

---

Tested on: mouse (C57BL/6) plasma
Assay: Presaturation equilibrium dialysis, fraction unbound in C57BL/6 mouse plasma
Assay type: in vitro ADME
Details: 5 μM PFAS, 18 h, 37 °C, value (CV)
Method: Each PFAS:matrix combination was assessed in quadruplicate. The injection volume for each sample was 5 µL.
Assay metric: Fraction Unbound (fu) and Coefficient of Variance (CV), C57BL/6 Plasma

Field request: Fraction Unbound (fu) and Coefficient of Variance (CV), C57BL/6 Plasma | item: `O=C(O)C(F)(F)C(F)(F)C(F)(F)C(F)(F)C(F)(F)C(F)(F)C(F)(F)C(F)(F)C(F)(F)F`
0.00127(9%)

Field request: Fraction Unbound (fu) and Coefficient of Variance (CV), C57BL/6 Plasma | item: `O=S(=O)(O)C(F)(F)C(F)(F)C(F)(F)C(F)(F)C(F)(F)C(F)(F)C(F)(F)C(F)(F)F`
0.00256(8%)

Field request: Fraction Unbound (fu) and Coefficient of Variance (CV), C57BL/6 Plasma | item: `O=C(O)C(F)(F)C(F)(F)C(F)(F)F`
0.767(2%)

Field request: Fraction Unbound (fu) and Coefficient of Variance (CV), C57BL/6 Plasma | item: `O=S(=O)(O)C(F)(F)C(F)(F)C(F)(F)C(F)(F)F`
0.28(5%)

Field request: Fraction Unbound (fu) and Coefficient of Variance (CV), C57BL/6 Plasma | item: `O=C(O)C(F)(F)C(F)(F)C(F)(F)C(F)(F)F`
0.577(5%)

Field request: Fraction Unbound (fu) and Coefficient of Variance (CV), C57BL/6 Plasma | item: `O=C(O)C(F)(F)C(F)(F)C(F)(F)C(F)(F)C(F)(F)C(F)(F)C(F)(F)C(F)(F)F`
0.00438(22%)

Field request: Fraction Unbound (fu) and Coefficient of Variance (CV), C57BL/6 Plasma | item: O=S(=O)(O)CCC(F)(F)C(F)(F)C(F)(F)C(F)(F)C(F)(F)C(F)(F)F [6:2 FtS, 6:2 fluorotelomer sulfonate]
0.0253(2%)

Field request: Fraction Unbound (fu) and Coefficient of Variance (CV), C57BL/6 Plasma | item: `O=C(O)C(F)(F)C(F)(F)C(F)(F)C(F)(F)C(F)(F)F`
0.182(7%)

---

target: rat serum albumin (RSA) (Rattus norvegicus); test: Presaturation equilibrium dialysis, fraction unbound in rat serum albumin solution; conditions: rat, isolated protein, Fraction unbound (fu) and %CV, RSA 3%, 3% rat serum albumin, value (%CV)
Parameter threshold = 0.0005. Response is Yes when fraction unbound at 18 h, 5 µM meets or exceeds it, else No.

State whether the measured fraction unbound at 18 h, 5 µM reaches 0.0005, counting equality as reaching it, for `O=S(=O)(O)C(F)(F)C(F)(F)C(F)(F)C(F)(F)C(F)(F)C(F)(F)F`
No

State whether the measured fraction unbound at 18 h, 5 µM reaches 0.0005, counting equality as reaching it, for `O=C(O)C(F)(F)C(F)(F)C(F)(F)C(F)(F)C(F)(F)C(F)(F)C(F)(F)F`
Yes

State whether the measured fraction unbound at 18 h, 5 µM reaches 0.0005, counting equality as reaching it, for `O=C(O)C(F)(F)C(F)(F)C(F)(F)C(F)(F)C(F)(F)C(F)(F)C(F)(F)C(F)(F)C(F)(F)C(F)(F)C(F)(F)F`
No

State whether the measured fraction unbound at 18 h, 5 µM reaches 0.0005, counting equality as reaching it, for NS(=O)(=O)C(F)(F)C(F)(F)C(F)(F)C(F)(F)C(F)(F)C(F)(F)C(F)(F)C(F)(F)F [PFOSA, perfluorooctanesulfonamide]
Yes

State whether the measured fraction unbound at 18 h, 5 µM reaches 0.0005, counting equality as reaching it, for `O=C(O)C(F)(F)C(F)(F)C(F)(F)C(F)(F)C(F)(F)C(F)(F)F`
Yes

---

Target: rat serum albumin (RSA) (Rattus norvegicus, UniProt P02770)
Assay: Presaturation equilibrium dialysis, fraction unbound in rat serum albumin solution
Conditions: 4% rat serum albumin in PBS, 5 μM PFAS, value (CV)
Procedure: The equilibrium dialysis device (EQD) HTD96 (Gales Ferry, CT, USA) was assembled according to manufacturer instructions. […] Each PFAS:matrix combination was assessed in quadruplicate. […] LC-MS/MS analyses were performed on a SCIEX Triple Quad 5500 mass spectrometer (SCIEX, Concord, ON, Canada) equipped with Turbo Ion Spray interface. […] Multiple-reaction-monitoring (MRM) mode using specific precursor/product ion transitions was used for quantification. […]
Assay metric: Fraction Unbound (fu) and Coefficient of Variance (CV), RSA

Field request: Fraction Unbound (fu) and Coefficient of Variance (CV), RSA | item: O=S(=O)(O)CCC(F)(F)C(F)(F)C(F)(F)C(F)(F)C(F)(F)C(F)(F)F [6:2 FtS, 6:2 fluorotelomer sulfonate]
0.0111(4%)

Field request: Fraction Unbound (fu) and Coefficient of Variance (CV), RSA | item: `O=C(O)C(F)(F)C(F)(F)C(F)(F)C(F)(F)F`
0.0942(4%)

Field request: Fraction Unbound (fu) and Coefficient of Variance (CV), RSA | item: `O=C(O)C(F)(F)C(F)(F)C(F)(F)C(F)(F)C(F)(F)F`
0.0264(4%)
